CONDITIONS: in ethanol, 293.2 K
METRIC: solubility (mole fraction)
Answers are plain numbers.

Given item "C[C@@]12C[C@H]3OC(=O)[C@@H]1CO[C@]14O[C@@]5([C@H]2C1=O)[C@@]3(C)OC(=O)[C@@]5(O)CC[C@H]1[C@H]4C[C@@H](O)[C@@]2(O)CC=CC(=O)[C@]12C" , the value recorded as its solubility (mole fraction) is 0.0047

----------
CONDITIONS: in methanol, 303.2 K
METRIC: solubility (mole fraction)
Answers are plain numbers.

Record "C[C@@]12C[C@H]3OC(=O)[C@@H]1CO[C@]14O[C@@]5([C@H]2C1=O)[C@@]3(C)OC(=O)[C@@]5(O)CC[C@H]1[C@H]4C[C@@H](O)[C@@]2(O)CC=CC(=O)[C@]12C" . Reported solubility (mole fraction): 0.0109

----------
CONDITIONS: in ethyl acetate, 293.2 K
METRIC: solubility (mole fraction)
Give bare numbers.

Reported solubility (mole fraction) for "C[C@@]12C[C@H]3OC(=O)[C@@H]1CO[C@]14O[C@@]5([C@H]2C1=O)[C@@]3(C)OC(=O)[C@@]5(O)CC[C@H]1[C@H]4C[C@@H](O)[C@@]2(O)CC=CC(=O)[C@]12C" was 0.0032

----------
CONDITIONS: in acetone, 308.2 K
METRIC: solubility (mole fraction)

Looking up "C[C@@]12C[C@H]3OC(=O)[C@@H]1CO[C@]14O[C@@]5([C@H]2C1=O)[C@@]3(C)OC(=O)[C@@]5(O)CC[C@H]1[C@H]4C[C@@H](O)[C@@]2(O)CC=CC(=O)[C@]12C" , I see its solubility (mole fraction) listed as 0.0286

----------
CONDITIONS: in acetone, 283.2 K
METRIC: solubility (mole fraction)
Numbers only.

The reported value for "C[C@@]12C[C@H]3OC(=O)[C@@H]1CO[C@]14O[C@@]5([C@H]2C1=O)[C@@]3(C)OC(=O)[C@@]5(O)CC[C@H]1[C@H]4C[C@@H](O)[C@@]2(O)CC=CC(=O)[C@]12C" in terms of solubility (mole fraction) is 0.0173

----------
CONDITIONS: in ethanol, 303.2 K
METRIC: solubility (mole fraction)

The compound listed as "C[C@@]12C[C@H]3OC(=O)[C@@H]1CO[C@]14O[C@@]5([C@H]2C1=O)[C@@]3(C)OC(=O)[C@@]5(O)CC[C@H]1[C@H]4C[C@@H](O)[C@@]2(O)CC=CC(=O)[C@]12C" shows solubility (mole fraction) equal to 0.0071

----------
CONDITIONS: in ethanol, 308.2 K
METRIC: solubility (mole fraction)
One number for each entry.

Quick note, solubility (mole fraction) for "C[C@@]12C[C@H]3OC(=O)[C@@H]1CO[C@]14O[C@@]5([C@H]2C1=O)[C@@]3(C)OC(=O)[C@@]5(O)CC[C@H]1[C@H]4C[C@@H](O)[C@@]2(O)CC=CC(=O)[C@]12C" landed at 0.0089

----------
CONDITIONS: in acetone, 303.2 K
METRIC: solubility (mole fraction)
Answers are plain numbers.

Short answer for "C[C@@]12C[C@H]3OC(=O)[C@@H]1CO[C@]14O[C@@]5([C@H]2C1=O)[C@@]3(C)OC(=O)[C@@]5(O)CC[C@H]1[C@H]4C[C@@H](O)[C@@]2(O)CC=CC(=O)[C@]12C" : solubility (mole fraction) was 0.0265

----------
CONDITIONS: in chloroform, 293.2 K
METRIC: solubility (mole fraction)
Give bare numbers.

The measured solubility (mole fraction) associated with "C[C@@]12C[C@H]3OC(=O)[C@@H]1CO[C@]14O[C@@]5([C@H]2C1=O)[C@@]3(C)OC(=O)[C@@]5(O)CC[C@H]1[C@H]4C[C@@H](O)[C@@]2(O)CC=CC(=O)[C@]12C" reads 0.0047

----------
CONDITIONS: in ethanol, 313.2 K
METRIC: solubility (mole fraction)
Answers are plain numbers.

Reported solubility (mole fraction) ( "C[C@@]12C[C@H]3OC(=O)[C@@H]1CO[C@]14O[C@@]5([C@H]2C1=O)[C@@]3(C)OC(=O)[C@@]5(O)CC[C@H]1[C@H]4C[C@@H](O)[C@@]2(O)CC=CC(=O)[C@]12C" ) = 0.0107

----------
CONDITIONS: in acetone, 298.2 K
METRIC: solubility (mole fraction)
One number for each entry.

Note to self: solubility (mole fraction) recorded for "C[C@@]12C[C@H]3OC(=O)[C@@H]1CO[C@]14O[C@@]5([C@H]2C1=O)[C@@]3(C)OC(=O)[C@@]5(O)CC[C@H]1[C@H]4C[C@@H](O)[C@@]2(O)CC=CC(=O)[C@]12C" was 0.0238

----------
CONDITIONS: in ethyl acetate, 313.2 K
METRIC: solubility (mole fraction)
Answers are plain numbers.

According to the records, this compound "C[C@@]12C[C@H]3OC(=O)[C@@H]1CO[C@]14O[C@@]5([C@H]2C1=O)[C@@]3(C)OC(=O)[C@@]5(O)CC[C@H]1[C@H]4C[C@@H](O)[C@@]2(O)CC=CC(=O)[C@]12C" displays solubility (mole fraction) of 0.0059

----------
CONDITIONS: in methanol, 293.2 K
METRIC: solubility (mole fraction)
Numbers only.

get_value(item= "C[C@@]12C[C@H]3OC(=O)[C@@H]1CO[C@]14O[C@@]5([C@H]2C1=O)[C@@]3(C)OC(=O)[C@@]5(O)CC[C@H]1[C@H]4C[C@@H](O)[C@@]2(O)CC=CC(=O)[C@]12C" , readout=solubility (mole fraction)) returns 0.0092

----------
CONDITIONS: in water, 283.2 K
METRIC: solubility (mole fraction)
Give bare numbers.

Field solubility (mole fraction) (entry "C[C@@]12C[C@H]3OC(=O)[C@@H]1CO[C@]14O[C@@]5([C@H]2C1=O)[C@@]3(C)OC(=O)[C@@]5(O)CC[C@H]1[C@H]4C[C@@H](O)[C@@]2(O)CC=CC(=O)[C@]12C" ) reads 0.0012

----------
CONDITIONS: in chloroform, 303.2 K
METRIC: solubility (mole fraction)

Short answer for "C[C@@]12C[C@H]3OC(=O)[C@@H]1CO[C@]14O[C@@]5([C@H]2C1=O)[C@@]3(C)OC(=O)[C@@]5(O)CC[C@H]1[C@H]4C[C@@H](O)[C@@]2(O)CC=CC(=O)[C@]12C" : solubility (mole fraction) was 0.0053

----------
CONDITIONS: in water, 298.2 K
METRIC: solubility (mole fraction)
Answers are plain numbers.

Lookup result for "C[C@@]12C[C@H]3OC(=O)[C@@H]1CO[C@]14O[C@@]5([C@H]2C1=O)[C@@]3(C)OC(=O)[C@@]5(O)CC[C@H]1[C@H]4C[C@@H](O)[C@@]2(O)CC=CC(=O)[C@]12C" ; measured solubility (mole fraction): 0.0027

----------
CONDITIONS: in methanol, 308.2 K
METRIC: solubility (mole fraction)
Give bare numbers.

Input "C[C@@]12C[C@H]3OC(=O)[C@@H]1CO[C@]14O[C@@]5([C@H]2C1=O)[C@@]3(C)OC(=O)[C@@]5(O)CC[C@H]1[C@H]4C[C@@H](O)[C@@]2(O)CC=CC(=O)[C@]12C" . Output solubility (mole fraction): 0.0122

----------
CONDITIONS: in chloroform, 298.2 K
METRIC: solubility (mole fraction)
Numbers only.

The recorded solubility (mole fraction) for "C[C@@]12C[C@H]3OC(=O)[C@@H]1CO[C@]14O[C@@]5([C@H]2C1=O)[C@@]3(C)OC(=O)[C@@]5(O)CC[C@H]1[C@H]4C[C@@H](O)[C@@]2(O)CC=CC(=O)[C@]12C" is 0.0049

----------
CONDITIONS: in ethyl acetate, 283.2 K
METRIC: solubility (mole fraction)
One number for each entry.

Item: "C[C@@]12C[C@H]3OC(=O)[C@@H]1CO[C@]14O[C@@]5([C@H]2C1=O)[C@@]3(C)OC(=O)[C@@]5(O)CC[C@H]1[C@H]4C[C@@H](O)[C@@]2(O)CC=CC(=O)[C@]12C" | solubility (mole fraction): 0.003

----------
CONDITIONS: in water, 313.2 K
METRIC: solubility (mole fraction)
One number for each entry.

Consider "C[C@@]12C[C@H]3OC(=O)[C@@H]1CO[C@]14O[C@@]5([C@H]2C1=O)[C@@]3(C)OC(=O)[C@@]5(O)CC[C@H]1[C@H]4C[C@@H](O)[C@@]2(O)CC=CC(=O)[C@]12C" . Its measured solubility (mole fraction) is 0.003
